Entry source: ChEMBL document CHEMBL1201862

- System: HCC 2998
- assayNotes: NCI tumour cell line growth inhibition, 48 h
Calls of active or inactive are those of the source. Rule as the data show it: active = GI50 up to about 1.1 µM and inactive = higher.
Respond with a class label; see true = active, false = inactive

Examples from the recorded data:
- CN(C)c1ccc(C2=C([O-])c3cc(-[n+]4ccccc4)ccc3C2=O)cc1: false
- CNC(=O)/C(C#N)=C(\N)N1CCCC1: false

// switching to the query compound
Hello, I am checking results. What call was entered for `N=C1c2ccccc2C(=O)c2c(NCCNCCO)ccc(O)c21` ?
false

====

- Test system: 786-0
- assayNotes: NCI tumour cell line growth inhibition, 48 h
Active and inactive are the calls of the source. Rule as the data show it: active = GI50 up to about 1.1 µM and inactive = higher.
quantityName: GI50

Answered cases to consult:
- CCOP(=O)(OCC)C(N)Cc1ccc(OC)c(OC)c1 (stereo not drawn): > 100 µM (inactive)
- Nc1nc(O)c2nc(CNc3ccc(C(=O)NC(CCC(=O)O)C(=O)O)cc3)cnc2n1 (stereo not drawn): > 100 µM (inactive)
- Nc1ncnc(NC2C=C(CO)C(O)C2O)c1[N+](=O)[O-] (stereo not drawn): > 100 µM (inactive)
- O=c1cc(-c2ccccc2)oc2cc(OCC(O)COc3ccc4c(=O)cc(-c5ccccc5)oc4c3)ccc12: 17.4 µM (inactive)
- c1ccc(C(=NNc2nc3ccccc3o2)c2ccccn2)nc1: < 0.0254 µM (active)
- COc1cc(N(CCC#N)CCC#N)ccc1/C=C1\SC(=S)NC1=O: > 100 µM (inactive)

For the compound `CC(=O)C1=C(C)O[C@@H]2O[C@H](COCc3ccccc3)[C@@H](OCc3ccccc3)[C@H](O)[C@@H]2S1` , what GI50 is on record?
25.1 µM (inactive)

For the compound C=C1C2CCCC1C1(S(C)(=O)=O)CCCCC21O (stereo not drawn) , what GI50 is on record?
> 100 µM (inactive)

====

- System: HCT-15
quantityName: GI50

Answered cases to consult:
* CO/C(=N\N=C\c1ccccc1F)c1ccncc1 | > 10 µM
* COC(=O)[C@]1(C)CCC[C@@]2(C)C1CCC1=C[C@@]3(C(C)C)CC[C@]12OO3 (stereo partly specified) | 31.9 µM
* Clc1ccc(Nc2nc(Cl)c3nc[nH]c3n2)cc1Cl | 21 µM
* COc1ccc(OC)c2c(C(=O)O)c(C(C)c3ccccc3)ccc12 (stereo unspecified) | > 100 µM
* CCOC(=O)/C=C/n1c2ccccc2c(=O)c2ccccc21 | > 100 µM

Turning to the following compound.
For the compound `CCCCCC[C@H]([C@H](C)O)n1cnc2c(N)ncnc21` , what GI50 is on record?
> 100 µM

====

- Tested on: UACC-62
- assayNotes: NCI tumour cell line growth inhibition, 48 h
Activity calls are given as the source filed them. No stated cut-off is given here; in the data, active = GI50 up to about 1.1 µM and inactive = higher.
quantityName: GI50

Answered cases to consult:
• C=CCn1c(=O)c2ccccc2[n+]2c(-c3cccc([N+](=O)[O-])c3)csc12 = 31.6 µM (inactive)
• COC(=O)c1ccccc1C1CN=NC12Cc1c(C)ccc(C)c1C2=O (stereo not given) = > 100 µM (inactive)
• COc1cc(Br)c(CC2C3=C(CCN2C(=O)C2CCC2)CC2(CC3)OCCO2)cc1O (stereo not given) = 53.8 µM (inactive)
• COC1=CC(=O)C2C(C1=O)[C@@H]1c3ccccc3C[C@H]21 (stereo not given in full) = > 100 µM (inactive)

Turning to the following compound.
For the compound `CN(C)C(=S)/N=c1\ssc(=S)n1Cc1cccnc1` , what GI50 is on record?
2.17 µM (inactive)
